Origin of the recorded values: paper PMC7565091

# melting point annotations

COMPOUND: NC(CCc1ccc(F)c(F)c1)P(=O)(O)O (stereo not shown) [Compound 15f]
melting point: 292 to 293 °C
//
COMPOUND: NC(CCc1ccccc1C(F)(F)F)P(=O)(O)O (stereo not shown) [Compound 15h]
melting point: 244 to 246 °C
//
COMPOUND: NC(CCc1ccc(C(F)(F)F)cc1)P(=O)(O)O (stereo not shown) [Compound 15g]
melting point: 295 to 296 °C
//
COMPOUND: NC(CCc1ccc(F)cc1F)P(=O)(O)O (stereo not shown) [Compound 15e]
melting point: 304 to 306 °C
//
COMPOUND: NC(CCc1cccc(F)c1)P(=O)(O)O (stereo not shown) [Compound 15c]
melting point: 292 to 294 °C
//
COMPOUND: NC(CCc1ccc(F)cc1)P(=O)(O)O (stereo not shown) [Compound 15d]
melting point: 303 to 305 °C
//
COMPOUND: NC(CCc1ccccc1F)P(=O)(O)O (stereo not shown) [Compound 15b]
melting point: 292 to 294 °C

---

- TEST SYSTEM: Recombinant human alanine aminopeptidase (hAPN, EC 3.4.11.2) (Homo sapiens, UniProt P15144)
- Construct: purchased R&D System (Minneapolis, MN)
- Sequence (P15144 whole entry): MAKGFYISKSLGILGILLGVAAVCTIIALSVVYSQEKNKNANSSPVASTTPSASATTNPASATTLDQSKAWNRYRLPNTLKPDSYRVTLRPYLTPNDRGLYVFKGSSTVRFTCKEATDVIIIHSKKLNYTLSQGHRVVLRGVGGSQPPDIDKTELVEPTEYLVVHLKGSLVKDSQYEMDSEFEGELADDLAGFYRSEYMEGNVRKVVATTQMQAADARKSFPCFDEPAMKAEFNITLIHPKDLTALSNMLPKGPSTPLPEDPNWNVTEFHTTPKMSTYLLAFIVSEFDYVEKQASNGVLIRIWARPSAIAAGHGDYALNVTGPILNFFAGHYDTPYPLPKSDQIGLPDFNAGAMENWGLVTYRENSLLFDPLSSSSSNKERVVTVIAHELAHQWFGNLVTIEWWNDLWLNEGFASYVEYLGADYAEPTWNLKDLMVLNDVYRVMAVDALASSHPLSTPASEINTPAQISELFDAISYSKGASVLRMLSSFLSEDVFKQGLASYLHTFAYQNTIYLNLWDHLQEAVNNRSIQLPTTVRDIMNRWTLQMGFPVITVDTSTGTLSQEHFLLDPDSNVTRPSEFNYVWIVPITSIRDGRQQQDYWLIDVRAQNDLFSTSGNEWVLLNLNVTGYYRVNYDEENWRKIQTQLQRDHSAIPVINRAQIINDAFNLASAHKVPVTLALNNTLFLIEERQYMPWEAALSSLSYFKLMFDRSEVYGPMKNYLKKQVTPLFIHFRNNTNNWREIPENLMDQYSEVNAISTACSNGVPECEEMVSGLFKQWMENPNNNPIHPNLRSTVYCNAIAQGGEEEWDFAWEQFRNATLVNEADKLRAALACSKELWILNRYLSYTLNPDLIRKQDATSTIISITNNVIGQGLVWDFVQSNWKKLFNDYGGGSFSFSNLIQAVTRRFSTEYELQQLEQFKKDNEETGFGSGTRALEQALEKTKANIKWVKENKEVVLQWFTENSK
- PROCEDURE SUMMARY: Fluorogenic (Ala-AMC) enzyme inhibition assay, hAPN
- Type: biochemical
- TEST PARAMETERS: racemic compounds; substrate Ala-AMC 50 µM; 50 mM Tris-HCl pH 7.00; 37 °C
pKi: −log10 of the molar value.
REPORTED PROPERTY: pKi

COMPOUND: NC(Cc1cc(F)ccc1Br)P(=O)(O)O (stereo not drawn) [Compound 17b]
REPORTED PROPERTY: pKi
ASSAY RESULT: 4.38
//
COMPOUND: NC(CCc1ccc(F)c(F)c1)P(=O)(O)O (stereo not drawn) [Compound 15f]
REPORTED PROPERTY: pKi
ASSAY RESULT: 6.83
//
COMPOUND: NC(CCc1ccccc1F)P(=O)(O)O (stereo not drawn) [Compound 15b]
REPORTED PROPERTY: pKi
ASSAY RESULT: 6.30
//
COMPOUND: NC(CCc1cccc(F)c1)P(=O)(O)O (stereo not drawn) [Compound 15c]
REPORTED PROPERTY: pKi
ASSAY RESULT: 6.89
//
COMPOUND: NC(Cc1ccc(F)c(Br)c1)P(=O)(O)O (stereo not drawn) [Compound 17c]
REPORTED PROPERTY: pKi
ASSAY RESULT: 6.61
//
COMPOUND: NC(CCc1ccc(C(F)(F)F)cc1)P(=O)(O)O (stereo not drawn) [Compound 15g]
REPORTED PROPERTY: pKi
ASSAY RESULT: 6.46
//
COMPOUND: NC(CCc1ccc(F)cc1F)P(=O)(O)O (stereo not drawn) [Compound 15e]
REPORTED PROPERTY: pKi
ASSAY RESULT: 6.18
//
COMPOUND: NC(CCc1ccc(F)cc1)P(=O)(O)O (stereo not drawn) [Compound 15d]
REPORTED PROPERTY: pKi
ASSAY RESULT: 6.60
//
COMPOUND: NC(CCc1ccccc1C(F)(F)F)P(=O)(O)O (stereo not drawn) [Compound 15h]
REPORTED PROPERTY: pKi
ASSAY RESULT: 6.09
